Hello, the source for this data is PubChem BioAssay (NCI), in case you need it.

Tested on: SK-MEL-28 melanoma
Assay protocol: NCI-60 one-dose screen, 48 h (100 = growth as untreated, 0 = no growth, -100 = all killed)
Condition summary: 10 µM unless noted
About 83,000 compounds went through this panel and 20% of them were active in at least one assay; those are over-represented in the sample as a whole.
Measured growth by item
Enter your answer as a number in %; do not include the unit.

CN(C)CCCn1c2c(c3ccc(N4CCNCC4)cc3c1=O)C(=O)c1ccccc1-2 | 59.7
CC[C@]12CN3CCc4c([nH]c5ccccc45)[C@@](C(=O)OC)(c4cc5c(cc4OC)N(C)[C@H]4[C@@](O)(C(=O)OC)[C@H](OC(C)=O)[C@]6(CC)C=CCN7CC[C@]54[C@@H]76)CC(C3)[C@H]1O2 (some centres not stated) | 60.2
Brc1ccc(/C=C(/C2=NCCN2)n2ccc3ccccc32)cc1 | 100
COC(=O)c1c2c(c(C)[n+]([O-])c1C)C(=O)C(NCCN1CCOCC1)=CC2=O | 95.2
NS(=O)(=O)c1ccc(C(=O)N=Nc2c(O)[nH]c3c(F)cccc23)cc1 | 105

The molecule listed as COc1ccc2c(c1)c(C(=O)c1nc(-c3cn(C)c4ccccc34)no1)cn2C has a reported growth of 93.4

The molecule listed as CCOC(=O)c1c(-c2ccc(C)cc2)c(C#N)c(=O)n(-c2cccc(C(F)(F)F)c2)c1N has a reported growth of 102

The molecule listed as COc1ccccc1/C=C1\COc2ccc(O)c(O)c2C1=O has a reported growth of 47.9

The molecule listed as O=C(NNc1ccccc1)C1CCCN1 (configuration not stated) has a reported growth of 69.2

The molecule listed as CN1Cn2c(ccc2C(F)(F)F)C(=O)CS1(=O)=O has a reported growth of 105

The molecule listed as COC(=O)N/N=C/c1c[n+]([O-])c2ccccc2[n+]1[O-] has a reported growth of 105

The molecule listed as CCOc1nc(-c2ccccc2)cc2c(O)c(C(=O)N/N=C/c3ccc(N(C)C)cc3)[nH]c(=O)c12 has a reported growth of 98.5

====

System: NCI-H226 lung
Assay protocol: NCI-60 one-dose screen, 48 h (100 = growth as untreated, 0 = no growth, -100 = all killed)
Condition summary: 10 µM unless noted
This is part of a sample that, as a whole, favours compounds with a hit. Of some 83,000 tested, about 20% had one in any assay. Activity calls are given as the source filed them. How the source made its calls: active means growth percent below 10; inactive means the rest.
Reported property: growth

Worked examples follow.
COc1nc2ccc(C)cc2cc1/C=[N+](\[O-])c1ccccc1 | 73.6% (inactive)
CC(=NCc1ccccc1)c1ccc(O)cc1O | 101% (inactive)
CN1C(=O)/C(=C/c2ccc(C(=O)Nc3ncc(Cc4ccccc4Cl)s3)cc2)SC1=S | 81.4% (inactive)

From here, focus on the item given below.
The molecule listed as CCCn1nc(C(=O)N2CCCCC2)c2c1CCC(N1CCC(c3ccncc3)CC1)C2 (centres undefined) has a reported growth of 116% (inactive)

====

Tested on: SNB-75 CNS
Assay protocol: NCI-60 one-dose screen, 48 h (100 = growth as untreated, 0 = no growth, -100 = all killed)
Condition summary: 10 µM unless noted
The panel holds about 83,000 compounds, 20% with a hit somewhere; the sample as a whole holds those more often.
Reported property: growth (%)
Enter your answer as a number in %; do not include the unit.

Worked examples follow.
COc1cc(-c2nc3occn3c2-c2ccnc(NCCCNS(=O)(=O)c3ccc(O)cc3)n2)ccc1F | 97.6
COCCn1cc(-c2nc(-c3cn(CCOC)c4ncccc34)cs2)c2ccccc21 | 64.6

From here, focus on the item given below.
The molecule listed as COc1nc2ccc(C)cc2cc1/C=[N+](\[O-])c1ccccc1 has a reported growth of 79.5

====

Tested on: CCRF-CEM leukemia
Assay protocol: NCI-60 one-dose screen, 48 h (100 = growth as untreated, 0 = no growth, -100 = all killed)
Condition summary: 10 µM unless noted
Description: Growth inhibition of the CCRF-CEM human tumor cell line is measured as a screen for anti-cancer activity. Cells are grown in 96 well plates and exposed to the test compound for 48 hours. Compounds are tested at a single concentration, which is 10^-5 M for most compounds. The reported endpoint is percent growth (GI% or GIPRCNT), where numbers from 0 - 100% represent growth inhibition, and numbers from -100% - 0 represent cell death. For example, a value of 40 represents 60% growth inhibition. […]
Compounds without any hit were thinned out: in the full panel of roughly 83,000, 20% have a hit.
Label yes (1) when growth >= 70%; otherwise no (0).

O=C1/C(=C/c2cn(-c3ccccc3)nc2-c2ccccc2)SC(=S)N1c1ccccc1 | yes (1)
COc1ccc(/C=C/C(=O)c2cc3c(N)c(C(=O)Nc4ccccc4)sc3nc2C)cc1 | no (0)
Fc1ccc(NC(c2ccc(F)cc2)C2CCN(CCCCc3ccccc3)CC2)cc1 (configuration not stated) | no (0)
Cc1cnc(C(=O)NNc2nc3sc4c(c3c(=O)[nH]2)C(C)CCC4)cn1 (configuration not stated) | no (0)

# bool: growth of CC/C=C\C/C=C\C[C@H](O)C/C=C1/C(=O)C=C[C@@H]1C/C=C\CCCC(=O)OC >= 70%
no (0)

# bool: growth of COc1cc(/C=N/NC(=O)CCN2c3ccccc3Sc3ccccc32)cc(OC)c1OC >= 70%
yes (1)

# bool: growth of O=C(c1cccc(Br)c1)N1CCN(c2ccnc3cc(Cl)ccc23)CC1 >= 70%
yes (1)

# bool: growth of O=c1cc(N/N=C/c2ccc(F)cc2)c2cc(Cl)ccc2[nH]1 >= 70%
no (0)

# bool: growth of CCCCCCCCCCCCCCCC(=O)O[C@@H]1[C@@H](O)[C@@H](O)C([C@H](NC(=O)[C@@H]2C[C@@H](CCC)CN2C)[C@H](C)Cl)O[C@@H]1SC (some centres not stated) >= 70%
yes (1)

# bool: growth of CCCCCCCCN(CCCCCCCC)CC(O)c1cc(Cl)ccc1OC (configuration not stated) >= 70%
yes (1)

# bool: growth of N=C(N)c1ccc(-c2ccc(-c3ccc(Cl)c(Cl)c3)s2)cc1 >= 70%
no (0)

====

System: KM12 colon
Assay protocol: NCI-60 one-dose screen, 48 h
Condition summary: 10 µM unless noted
The panel holds about 83,000 compounds, 20% with a hit somewhere; the sample as a whole holds those more often. The source made the active and inactive calls. How the source made its calls: active means growth percent below 10; inactive means the rest.
Tick one outcome: 1 = active, -1 = inactive

Lab log entry: Cc1ccc(/C=C/c2c(C(=O)/C=C/c3ccccc3)c(C)nc3ccccc23)cc1 — outcome as called in the assay?
-1

Lab log entry: CC(C)(C)c1cc(C(C)(C)c2ccccc2)cc(Cc2cc(C(C)(C)c3ccccc3)cc(C(C)(C)C)c2O)c1O — outcome as called in the assay?
-1

Lab log entry: COc1cc(/C=N/NC(=O)CCN2c3ccccc3Sc3ccccc32)cc(OC)c1OC — outcome as called in the assay?
-1

Lab log entry: N#C/C(=C\c1ccc(Br)cc1)n1nnc2c(F)cccc21 — outcome as called in the assay?
1

====

System: SNB-19 CNS
Assay protocol: NCI-60 one-dose screen, 48 h (100 = growth as untreated, 0 = no growth, -100 = all killed)
Condition summary: 10 µM unless noted
Method: Growth inhibition of the SNB-19 human tumor cell line is measured as a screen for anti-cancer activity. Cells are grown in 96 well plates and exposed to the test compound for 48 hours. Compounds are tested at a single concentration, which is 10^-5 M for most compounds. The reported endpoint is percent growth (GI% or GIPRCNT), where numbers from 0 - 100% represent growth inhibition, and numbers from -100% - 0 represent cell death. For example, a value of 40 represents 60% growth inhibition. […]
About 83,000 compounds went through this panel and 20% of them were active in at least one assay; those are over-represented in the sample as a whole. Active and inactive are the calls of the source. The calls were made as follows: active = growth percent below 10; inactive = the rest.
Reported property: growth

Worked examples follow.
COc1cc(/C=C(/c2ccccc2)[N+](=O)[O-])c(OC)c2c1OCO2 | -17.1% (active)
O=C(c1ccc(Nc2nccc(NCCCNc3ccnc4cc(Cl)ccc34)n2)cc1)N1CCCCC1 | 35% (inactive)
O=C(/C=C/c1cccs1)Nc1ncc(Cc2ccc(Cl)c(Cl)c2)s1 | 71.1% (inactive)

The compound listed as Cc1n(Cc2ccc3ccccc3c2)c(Cl)c(Cl)[n+]1Cc1ccc2ccccc2c1 has a reported growth of 23.3% (inactive)

====

Tested on: HCT-15 colon
Assay protocol: NCI-60 one-dose screen, 48 h (100 = growth as untreated, 0 = no growth, -100 = all killed)
Condition summary: 10 µM unless noted
About 83,000 compounds went through this panel and 20% of them were active in at least one assay; those are over-represented in the sample as a whole.
Reported property: growth (%)
Enter your answer as a number in %; do not include the unit.

Worked examples follow.
COC(=O)c1nc(-c2ccccc2)oc1S(=O)(=O)N(C)CCO | 42.5
O=C1C(N2CCOCC2)=C(I)C(=O)c2ncccc21 | 67.1
O=C(NNc1ccccc1)c1ncc[nH]1 | 34.8

# value of growth, HCT-15 colon, item CN1C(=O)/C(=C/c2ccc(C(=O)Nc3ncc(Cc4ccccc4Cl)s3)cc2)SC1=S = 42.1
